All values here come from patent US5846942A.

In this section, each of the compounds is paired with its reported Ki.
# STUDY_SYSTEM: Central CCK Receptors (Mus musculus)
# Sequence (P56481 1-453): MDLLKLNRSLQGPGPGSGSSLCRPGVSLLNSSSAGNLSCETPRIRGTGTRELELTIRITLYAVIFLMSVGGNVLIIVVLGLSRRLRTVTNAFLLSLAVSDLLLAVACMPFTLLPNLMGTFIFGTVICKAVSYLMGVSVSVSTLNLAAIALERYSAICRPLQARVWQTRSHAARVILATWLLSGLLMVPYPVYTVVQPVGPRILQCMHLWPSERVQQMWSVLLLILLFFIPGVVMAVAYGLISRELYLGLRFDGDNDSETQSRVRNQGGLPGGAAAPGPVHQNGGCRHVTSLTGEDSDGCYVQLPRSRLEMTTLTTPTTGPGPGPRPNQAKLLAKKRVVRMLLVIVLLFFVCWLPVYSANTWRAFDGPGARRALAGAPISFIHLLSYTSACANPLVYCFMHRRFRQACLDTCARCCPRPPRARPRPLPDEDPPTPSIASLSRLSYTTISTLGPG
READOUT_NAME: Ki (nM)

| COMPOUND | READOUT_NAME | REPORTED |
| --- | --- | --- |
| C[C@](Cc1c[nH]c2ccccc12)(NC(=O)OC1C2CC3CC(C2)CC1C3)C(=O)NCCC(=O)N[C@H](Cc1ccccc1)C(N)=O (stereo partly drawn) [Example 25] | Ki | 550 |
| C[C@](Cc1c[nH]c2ccccc12)(NC(=O)OC1C2CC3CC(C2)CC1C3)C(=O)NC1(CO)CCCCC1 (stereo partly drawn) [Example 122] | Ki | 59 |
| C[C@](Cc1c[nH]c2ccccc12)(NC(=O)OC1C2CC3CC(C2)CC1C3)C(=O)NC1CCCCC1C#N (stereo partly drawn) [Example 116] | Ki | 3.5 |
| C[C@](Cc1c[nH]c2ccccc12)(NC(=O)OC1C2CC3CC(C2)CC1C3)C(=O)NCCC(=O)N[C@H](CO)Cc1ccccc1 (stereo partly drawn) [Example 23] | Ki | 800 |
| C[C@](Cc1c[nH]c2ccccc12)(NC(=O)OC1C2CC3CC(C2)CC1C3)C(=O)NCCC(=O)N[C@@H](Cc1ccccc1)C(N)=O (stereo partly drawn) [Example 26] | Ki | 92 |
| CC(CNC(=O)OC1C2CC3CC(C2)CC1C3)(Cc1c[nH]c2ccccc12)C(=O)N[C@H](COC(=O)CCC(=O)O)Cc1ccccc1 (stereo partly drawn) [Example 57] | Ki | 93 |
| CC(CNC(=O)O[C@@H]1C[C@@H]2CC[C@@]1(C)C2(C)C)(Cc1c[nH]c2ccccc12)C(=O)N[C@H](COC(=O)CCC(=O)O)Cc1ccccc1 (stereo partly drawn) [Example 56] | Ki | 23 |
| C[C@](Cc1c[nH]c2ccccc12)(NC(=O)OC1C2CC3CC(C2)CC1C3)C(=O)NC1(CO)CCCC1 (stereo partly drawn) [Example 119] | Ki | 180 |
| N#CC(=Cc1c[nH]c2ccccc12)C(=O)NCCc1ccccc1 [Example 58] | Ki | 110 |
| C[C@@](Cc1c[nH]c2ccccc12)(NC(=O)OC1C2CC3CC(C2)CC1C3)C(=O)NCCC(=O)N[C@H](CO)Cc1ccccc1 (relative stereo) [Example 24] | Ki | 1100 |
| C[C@](Cc1c[nH]c2ccccc12)(NC(=O)OC1C2CC3CC(C2)CC1C3)C(=O)N[C@H](C(=O)O)c1ccccc1 (stereo partly drawn) [Example 91] | Ki | 110 |
| C[C@](CN[C@H](CO)Cc1ccccc1)(Cc1c[nH]c2ccccc12)NC(=O)OC1C2CC3CC(C2)CC1C3 (stereo partly drawn) [Example 6] | Ki | 200 |
